Every entry's value here was drawn from PubChem BioAssay (NCI).

# Tested on: SK-OV-3 ovarian
# method: NCI tumour cell line growth inhibition, 48 h; in the data active = GI50 below about 0.43 µM; inactive = the rest
Possible outcomes: active, inactive

compound	qualitative_label
COC1CC(OS(=O)(=O)c2ccc(C)cc2)C(OC(=O)c2ccccc2)C(C)O1 (centres undefined)	inactive
N/C(=N\N=C\c1ccc(-c2ccccc2)cc1)N[N+](=O)[O-]	inactive
O=C1c2ccccc2-c2c1c1ccc([N+](=O)[O-])cc1c(=O)n2CCCBr	inactive
C[C@@H]1CC[C@H]2C(COCCOCC3=C(C(F)(F)F)O[C@@H]4O[C@@]5(C)CC[C@H]6[C@H](C)CC[C@@H]3[C@@]46OO5)=C(C(F)(F)F)O[C@@H]3O[C@@]4(C)CC[C@@H]1[C@]32OO4	inactive
O=C(/C(=C/c1ccccc1)CN1CCCCC1)c1ccccc1	inactive
C/C(=N\Nc1ccc2ccccc2n1)c1ccccn1	active
COc1cc2c(cc1OCCCCOc1cc3c(cc1OC)C(=O)N1CCC[C@H]1CN3)N=C[C@@H]1CCCN1C2=O	inactive
COc1ccc(-c2n[nH]nc2-c2cc(OC)c3c(c2OC)OCO3)cc1	inactive
Cc1ccc(NC(=O)/C=C/c2ccccc2)c(C(N)=O)c1	inactive
Cc1c2cc[n+](CCN3CCCCC3)cc2c(C)c2c1[nH]c1ccc(O)cc12	inactive
N#C/C(=C\c1c(-c2ccccc2)[nH]c2ccccc12)S(=O)(=O)c1ccccc1	inactive
COc1cccc(C=Nc2cc(C)ccn2)c1O.COc1cccc(C=Nc2cc(C)ccn2)c1O.[Cu]	inactive
COc1cc2c(c(OC)c1OC)-c1ncc3cc(OC)c(OC)c(OC)c3c1C2	inactive
COc1ccc2cc(-c3ccoc(=O)c3-c3cc(OC)c(OC)c(OC)c3)ccc2c1	active

----------
# Test system: BT-549 breast
# method: NCI tumour cell line growth inhibition, 48 h; in the data active means GI50 below about 0.43 µM; inactive means the rest
Possible outcomes: 1 for active, -1 for inactive

compound	qualitative_label
c1ccc2c(c1)c(NCCCCN1CCCCC1)cc1c3ccccc3c(NCCCCN3CCCCC3)cc21	-1
N#C/C(=C\c1c(-c2ccccc2)[nH]c2ccccc12)S(=O)(=O)c1ccccc1	-1
CC(CN1CCN(CCOCCO)CC1)CN1c2ccccc2Sc2ccc(Cl)cc21 (centres undefined)	-1
CCCn1c(C)nc2c1C(=O)c1ccccc1C2=O	-1
O=[N+]([O-])c1cccc(-c2nc3sccn3c2-c2ccnc(NCCCNS(=O)(=O)c3cccc(F)c3)n2)c1	-1
Clc1cc(Cl)c(OCC#CI)cc1Cl	-1
Nc1ncnc2[nH]ncc12	-1
COC(=O)C(Cc1ccccc1)NC(=O)NC(=O)NC(=O)CI (centres undefined)	-1
O=C(NN1C(=O)CSC12CCCCC2)c1[nH]c2ccc(F)cc2c1-c1ccccc1	-1
COc1ccc(-c2cc(-c3ccccc3)nc(SCCCC(=O)NO)n2)cc1	-1
CN(C)c1ccc(/C=C\c2cccc[n+]2C)cc1	-1
Cc1cc(N/N=C/c2nc(-c3ccc(Br)cc3)oc2C)c2cc(Cl)ccc2n1	-1
C[C@@H]1CC[C@H]2C(COCCOCC3=C(C(F)(F)F)O[C@@H]4O[C@@]5(C)CC[C@H]6[C@H](C)CC[C@@H]3[C@@]46OO5)=C(C(F)(F)F)O[C@@H]3O[C@@]4(C)CC[C@@H]1[C@]32OO4	1
COc1cccc(NC(=O)c2sc3nc4c(cc3c2N)CN(Cc2ccccc2)CC4)c1	-1
O=C(/C(=C/c1ccccc1)CN1CCCCC1)c1ccccc1	-1
C[C@]12CC[C@H]3[C@@H](CCC4=CC(=O)CC[C@@H]43)[C@@H]1CC[C@@H]2OC(=O)CCc1ccccc1	-1
Cc1ccc(NC(=O)/C=C/c2ccccc2)c(C(N)=O)c1	-1
O=C1c2ccccc2-c2c1c1ccc([N+](=O)[O-])cc1c(=O)n2CCCBr	-1
Cn1c2c(cc(S(=O)(=O)c3ccccc3)c1=O)CCc1c-2cnn1-c1ccc(Cl)cc1	-1

----------
# Test system: 786-0 renal
# method: NCI tumour cell line growth inhibition, 48 h

compound	measurement_unit	inequality_sign	TGI
COc1nc(N)c(NC2OC(CO)C(O)C2O)c(=O)[nH]1 (stereo unspecified)	µM	>	100
CNC(=O)OCc1c(COC(=O)NC)c(C)n(-c2ccc(Br)cc2)c1C	µM	=	27.8
CCC(NC(C)c1ccccc1)C(O)c1ccc(OCc2ccccc2)c(OCc2ccccc2)c1 (stereo unspecified)	µM	=	27.1
CN(C)CCNC(=O)c1cccc2c(NCC(=O)O)c3ccccc3nc12	µM	=	62.7
Clc1cc(Cl)c(OCC#CI)cc1Cl	µM	=	3.39
Cn1c2c(cc(S(=O)(=O)c3ccccc3)c1=O)CCc1c-2cnn1-c1ccc(Cl)cc1	µM	=	5.51
CSCC1CC(c2ccc(Cl)cc2)=NO1 (stereo unspecified)	µM	>	100
COc1ccc(N=c2ssc3c(=S)ssc23)cc1	µM	>	100
COc1ccc(NC(=O)C/C(C)=N\N=C(N)N)c([N+](=O)[O-])c1	µM	>	100
O=C1C(=O)c2c(nc3ccc(Cl)cn23)-c2ccccc21	µM	=	1.82
C/C(=N\Nc1ccc2ccccc2n1)c1ccccn1	µM	=	1.69
O=C(O[C@H]1[C@@H](O)[C@H](n2cnc3c(Cl)ncnc32)O[C@@H]1COC(c1ccccc1)(c1ccccc1)c1ccccc1)c1ccccc1	µM	=	58.1
CC(=O)OC1C(O)COC(O[C@H]2CC[C@]34C[C@]35CC[C@]3(C)C([C@@]6(C)CC[C@@H](C(C)(C)O)O6)[C@@H](O)C[C@@]3(C)C5C[C@H](OC3OCC(O)C(O)C3O)[C@H]4C2(C)C)C1OC1OCC(O)C(O)C1O (stereo partly specified)	µM	>	100
C=Cc1c(C)c(OC)cc2c1Oc1ccc(OC)c(C)c1CC2	µM	>	100
Cn1c(/C=C(\O)c2ccc(Cl)cc2)nc2ccccc21	µM	>	100
C=CCOC1OC(CO[Si](C)(C)C(C)(C)C)C(OCc2ccccc2)C(OCc2ccccc2)C1OCc1ccccc1 (stereo unspecified)	µM	=	22.3
CN(C)c1ccc(N=Nc2ccc3nc[nH]c3c2)cc1	µM	=	36.1
CCCCCCNC(=O)c1cnc(Cl)cn1	µM	>	100
COc1ccc(C(OCC2OC(n3ccc(NC(=O)c4ccccc4)nc3=O)C(O)C2O)(c2ccccc2)c2ccccc2)cc1 (stereo unspecified)	µM	=	3.69
CCC1(CC)CC(=NNS(=O)(=O)c2ccc(C)cc2)C1	µM	>	100
N#C/C(=C\c1ccccc1)C(=O)Nc1nnc(-c2ccccc2)o1	µM	>	100
Nn1c(-c2ccccc2Cl)nc2ccccc2c1=O	µM	>	100
CC1(C)CC(=O)c2c(nc3ccc4ccccc4c3c2-c2ccc(NC(=O)CCCC(=O)Nc3ccc(-c4c5c(nc6ccc7ccccc7c46)CC(C)(C)CC5=O)cc3)cc2)C1	µM	>	100
O=S(=O)(c1ccccc1)C(CN1CCCCC1)S(=O)(=O)c1ccccc1	µM	>	100
N#CC(c1ccccc1)c1nc2ccc(=N)cc-2n(O)c1C(C#N)c1ccccc1 (stereo unspecified)	µM	>	100
O=c1oc2ccccc2cc1/C=N/N1C(=S)N(c2ccccc2)C(=Nc2ccccc2)C1=Nc1ccccc1	µM	>	100

----------
# Tested on: SK-MEL-2 melanoma
# method: NCI tumour cell line growth inhibition, 48 h

compound	tested_target	inequality_sign	TGI, µM
Cc1ccc(Oc2ccc(C)cc2[N+](=O)[O-])cc1	SK-MEL-2 melanoma	>	100
CCC1CN2CCc3cc(OC)c(OC)cc3C2CC1CC1c2cc(OC)c(OC)cc2CCN1C(=O)C1CCCN1C(=O)OCc1ccccc1 (stereo not given)	SK-MEL-2 melanoma	=	33.6
COc1cccc(/C=C2/Sc3scc(-c4ccccc4)[n+]3C2=O)c1O	SK-MEL-2 melanoma	=	89.8
CN(C)c1ccc(C=C2C(=O)OC(C)(C)OC2=O)cc1Br	SK-MEL-2 melanoma	>	100
COc1ccc(-c2c(N)n(-c3nc4ccccc4s3)c(=O)c3cc([N+](=O)[O-])ccc23)cc1	SK-MEL-2 melanoma	>	100

----------
# Tested on: SF-539 CNS
# method: NCI tumour cell line growth inhibition, 48 h

compound	TGI
CC(C)(C)c1ccc(OCCCCCCN2CCNCC2)cc1	20.6 µM
COc1ccc(N2C(=O)C3c4[nH]c5ccc(C)cc5c4C4CCC(C)CC4C3C2=O)cc1 (stereo unspecified)	> 100 µM
Cc1n[nH]c(=O)c2cc(-c3ccccc3)[nH]c12	> 100 µM
Cc1c(C#N)c(=O)[nH]c(=O)n1CCN1CCN(C(=O)NCCCCCCNC(=O)N2CCN(CCn3c(C)c(C#N)c(=O)[nH]c3=O)CC2)CC1	> 100 µM
CC1CC[C@@H](C(C)C)[C@H](Oc2nnc(C3OC(CO)C(O)C3O)o2)C1 (stereo partly specified)	> 100 µM
COC(=O)Cn1c2c(c3c(O)cccc31)C(=O)c1ccccc1-2	> 100 µM
O=c1ccc2cc(O)c(O)cc2o1	> 100 µM
CC1=C2C(=O)c3ccccc3C(=O)[C@H]2[C@H]2CCO[C@H]2O1	43.9 µM
N#Cc1c(N/N=C/c2c(Cl)cccc2Cl)nc(N)nc1N1CCOCC1	30.4 µM
C=CCc1cc(OC)c2c(c1)C(O)CC(c1ccccc1)O2 (stereo unspecified)	> 100 µM
Nc1ncnc2[nH]ncc12	> 100 µM
COc1ccc(C2CC(c3cc(OC)c(OC)c(OC)c3)=NN2C(C)=O)cc1OCC(=O)Nc1nc2ccc(C(F)(F)F)cc2s1 (stereo unspecified)	3.42 µM
CC1=C(N2CC2)C(=O)c2nc3n(c2C1=O)CCC3OC(=O)CCl (stereo unspecified)	0.152 µM
O=C(NNC1=NCCN1)c1ccco1	> 100 µM
COc1ccc(N2C(=O)C3c4[nH]c5c(C)cccc5c4C4CCC(C(C)(C)C)CC4C3C2=O)cc1 (stereo unspecified)	> 10 µM
CC12CCC(C(=O)OC1=O)C(C)(C)O2 (stereo unspecified)	> 100 µM
O=C1C(=O)c2c(nc3ccc(Cl)cn23)-c2ccccc21	0.358 µM
[N-]=[N+]=Nc1c(-c2ccccc2)c(Cl)nc2ccccc12	> 100 µM
COc1ccc(OC)c(NC(=O)CCC/C(CC(=O)c2ccc(O)c(OC)c2)=N\NC(=O)C[N+](C)(C)C)c1	> 100 µM
C=CC(=O)N(C)[C@H]1C[C@H]2OC(C)(C1OC)n1c3ccccc3c3c4c(c5c6ccccc6n2c5c31)C(=O)NC4 (stereo partly specified)	0.379 µM
CCO[C@]12C[C@H](OC)[C@@]3(O)CC(C1[C@H]3OCc1ccccc1)C13C4C2[C@H](OC)C1[C@](COC)(CN4CC)[C@H](O)C[C@@H]3OC (stereo partly specified)	> 100 µM
